- ASSAY_SYSTEM: full-length beta-Catenin (Uniprot ID P35222) (Homo sapiens (Human)) (UniProt P35222)
- Sequence (P35222 2-781 limits assumed): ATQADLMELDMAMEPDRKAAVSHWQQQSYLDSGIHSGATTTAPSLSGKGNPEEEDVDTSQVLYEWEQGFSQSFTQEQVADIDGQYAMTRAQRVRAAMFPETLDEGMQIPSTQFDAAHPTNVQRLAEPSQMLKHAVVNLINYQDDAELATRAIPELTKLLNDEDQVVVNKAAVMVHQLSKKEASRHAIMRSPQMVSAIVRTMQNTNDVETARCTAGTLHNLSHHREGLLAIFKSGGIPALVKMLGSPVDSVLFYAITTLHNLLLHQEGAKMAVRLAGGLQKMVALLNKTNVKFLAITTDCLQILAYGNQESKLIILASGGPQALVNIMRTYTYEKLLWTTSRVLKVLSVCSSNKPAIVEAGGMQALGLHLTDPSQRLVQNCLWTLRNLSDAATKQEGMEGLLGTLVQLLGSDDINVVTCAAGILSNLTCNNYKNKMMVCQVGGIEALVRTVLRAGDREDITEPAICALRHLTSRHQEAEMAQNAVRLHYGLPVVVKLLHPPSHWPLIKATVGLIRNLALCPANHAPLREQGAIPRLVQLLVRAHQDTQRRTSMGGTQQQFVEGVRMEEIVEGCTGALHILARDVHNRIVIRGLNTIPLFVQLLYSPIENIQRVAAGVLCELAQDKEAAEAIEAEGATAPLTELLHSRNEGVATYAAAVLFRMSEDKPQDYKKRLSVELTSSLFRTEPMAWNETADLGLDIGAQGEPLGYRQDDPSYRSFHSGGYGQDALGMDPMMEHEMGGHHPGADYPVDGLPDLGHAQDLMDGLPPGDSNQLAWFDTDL
- METHOD: fluorescence polarization competition; peptide displaces 5FAM-TCF4(10-53) from full-length beta-catenin
Starred links: 1 amine or outer side, 2 acyl side, 3 side chain; linkers in the order of their positions; H or OH if unused. Positions of bridges follow the written chain, without caps; N, C: chain ends. Non-standard residues stand in square brackets, D forms with d. Primed or numbered codes have the meaning given here. PyrS2 = (S)-3-amino-1-((pent-4-en-1-yloxy)carbonyl)pyrrolidine-3-carboxylic acid, C=CCCCOC(=O)N1CC[C@@](N[*:1])(C(=O)[*:2])C1; PyrS3 = (S)-3-amino-1-((hex-5-en-1-yloxy)carbonyl)pyrrolidine-3-carboxylic acid, C=CCCCCOC(=O)N1CC[C@@](N[*:1])(C(=O)[*:2])C1; SeN = (S)-5-(((allyloxy)carbonyl)(methyl)amino)-2-amino-2-methylpentanoic acid, C=CCOC(=O)N(C)CCC[C@](C)(N[*:1])C(=O)[*:2]; B5(13) = 2-amino-2-(pent-4-en-1-yl)hept-6-enoic acid (two alkene chains), C=CCCCC(CCCC=C)(N[*:1])C(=O)[*:2]; B5(3) = 2,2-bis(4-pentenyl)glycine (stitching residue), C=CCCCC(CCCC=C)(N[*:1])C(=O)[*:2]; Bta = N[C@@H](Cc1csc2ccccc12)C(=O)O; αAllylPro = C=CC[C@@]1(C(=O)O)CCCN1; tBuAla = CC(C)(C)C[C@H](N)C(=O)O; 2Thi = N[C@@H](Cc1cccs1)C(=O)O; 3Thi = N[C@@H](Cc1ccsc1)C(=O)O; hLeu = CC(C)CC[C@H](N)C(=O)O
READOUT: IC50

Guide cases for IC50, answers given:
{"BINDER": "Ac-[αAllylPro]D[tBuAla][B5(3)]DDAAFN[PyrS2][3Thi]WH-NH2 (staple 1-4, 4-11) [I-792]", "IC50": "20 nM"}
{"BINDER": "Ac-[αAllylPro]D[hLeu][B5(3)]DDAAFN[PyrS2][3Thi][Bta]H-NH2 (staple 1-4, 4-11) [I-788]", "IC50": "5 nM"}
{"BINDER": "Ac-[αAllylPro]D[tBuAla][B5(13)]DDAAFN[SeN][3Thi][Bta]H-NH2 (staple 1-4, 4-11) [I-774]", "IC50": "38 nM"}

Noted for Ac-[αAllylPro]D[tBuAla][B5(13)]DDAAFN[PyrS3][3Thi][Bta]H-NH2 (staple 1-4, 4-11) [I-775] : its IC50 reads 6 nM

Form: binder = Ac-[αAllylPro]D[tBuAla][B5(13)]DDAAFN[SeN][3Thi][Bta]H-NH2 (staple 1-4, 4-11) [I-773] ; IC50 = 167 nM

Documented IC50 of Ac-[αAllylPro]D[tBuAla][B5(13)]DDAAFN[PyrS2][2Thi][Bta]H-NH2 (staple 1-4, 4-11) [I-779] : 5 nM

According to the records, this binder Ac-[αAllylPro]D[tBuAla][B5(13)]DDAAFN[PyrS3][3Thi][Bta]H-NH2 (staple 1-4, 4-11) [I-776] displays IC50 of 5 nM
